# credit: the supplement of paper PMC12667976

B1: library; numbered along this chain (parent)
chain: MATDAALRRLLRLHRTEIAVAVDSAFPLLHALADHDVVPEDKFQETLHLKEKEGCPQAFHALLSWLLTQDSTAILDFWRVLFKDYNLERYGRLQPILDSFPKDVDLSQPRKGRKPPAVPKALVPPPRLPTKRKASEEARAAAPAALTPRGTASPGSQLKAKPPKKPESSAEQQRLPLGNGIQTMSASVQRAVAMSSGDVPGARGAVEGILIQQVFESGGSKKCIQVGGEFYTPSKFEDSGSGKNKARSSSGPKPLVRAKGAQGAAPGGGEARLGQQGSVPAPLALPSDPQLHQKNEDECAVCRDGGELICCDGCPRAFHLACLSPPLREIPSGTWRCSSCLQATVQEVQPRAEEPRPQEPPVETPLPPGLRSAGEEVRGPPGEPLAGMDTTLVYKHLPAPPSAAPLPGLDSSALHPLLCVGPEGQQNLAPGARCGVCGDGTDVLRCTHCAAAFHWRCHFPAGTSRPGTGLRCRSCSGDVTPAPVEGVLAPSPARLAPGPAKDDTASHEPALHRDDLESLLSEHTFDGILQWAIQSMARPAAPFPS

- Variants of: B1
- Assay Info: AIRE transcriptional activation functional score (insulin promoter-GFP; nonsense median 0, synonymous median 1) (normalised score); higher = higher AIRE activity (more reporter activation)
- Applied Conditions: with insulin promoter-GFP reporter in HEK293
Listed next: entries and their corresponding AIRE transcriptional activation functional score.
Parameter: AIRE transcriptional activation functional score

{"Variant String": "A399R", "Measured": 0.779}
{"Variant String": "D198Y", "Measured": 0.99}
{"Variant String": "P176E", "Measured": 0.297}
{"Variant String": "R351G", "Measured": 1.02}
{"Variant String": "P368H", "Measured": 1.18}
{"Variant String": "K294Q", "Measured": 1.43}
{"Variant String": "R8L", "Measured": -0.0603}
{"Variant String": "L341S", "Measured": 0.767}
{"Variant String": "G260A", "Measured": 0.8}
{"Variant String": "K159Q", "Measured": 0.00224}
{"Variant String": "V37H", "Measured": 0.218}
{"Variant String": "G242A", "Measured": 1.19}
{"Variant String": "Q69G", "Measured": 0.383}
{"Variant String": "V192R", "Measured": 0.721}
{"Variant String": "P398I", "Measured": 1.23}
{"Variant String": "S464W", "Measured": -0.451}
{"Variant String": "F230Q", "Measured": 0.665}
{"Variant String": "T3E", "Measured": -0.211}
{"Variant String": "Q172H", "Measured": 1.81}
{"Variant String": "G369T", "Measured": 0.912}
{"Variant String": "S250I", "Measured": 1.11}
{"Variant String": "L11N", "Measured": 0.0103}
